The measurements presented in this section are drawn from ChEMBL document CHEMBL1201862.

# Tested on: LOX IMVI
# experiment.notes: NCI tumour cell line growth inhibition, 48 h
Calls of active or inactive are those of the source. No stated cut-off is given here; in the data, active = GI50 up to about 1.1 µM and inactive = higher.
observed.property: GI50

Asked: Need GI50 of C=CCc1cccc2cc(C(=O)NC3CCCCC3)c(=N)oc12 , thanks.
Given back: 15.4 µM (inactive)

Asked: Need GI50 of Cc1ccc(S(=O)(=O)N(CC(O)COc2ccccc2)c2ccc(F)cc2F)cc1 (stereo unspecified) , thanks.
Given back: 14.2 µM (inactive)

Asked: Need GI50 of NC(=O)C(=CNC(=S)c1ccncc1)C(N)=O , thanks.
Given back: > 100 µM (inactive)

Asked: Need GI50 of c1ccc(C(OCCN2CC3CCC(C2)N3)c2ccccc2)cc1 , thanks.
Given back: 66.4 µM (inactive)

Asked: Need GI50 of O=C1OC(C(O)CO)C(O)=C1O (stereo unspecified) , thanks.
Given back: > 100 µM (inactive)

Asked: Need GI50 of COc1ccccc1/C=C/C(=O)c1sc(-c2cccnc2)nc1C , thanks.
Given back: > 100 µM (inactive)

* * *

# System: LOX IMVI
# experiment.notes: NCI tumour cell line growth inhibition, 48 h
Calls of active or inactive are those of the source. No stated cut-off is given here; in the data, active = GI50 up to about 1.1 µM and inactive = higher.
observed.property: GI50

Asked: Query the reported GI50 for LOX IMVI; item: O=C1CSC(c2ccccc2O)N1c1ccc(-c2ccc(-n3c(-c4ccccc4)nc4ccccc4c3=O)cc2)cc1 (stereo unspecified)
Given back: 25.7 µM (inactive)

Asked: Query the reported GI50 for LOX IMVI; item: NC(=O)CCC(Nc1c2ccccc2[n+]([O-])c2ccccc12)C(=O)O (stereo unspecified)
Given back: 49 µM (inactive)

Asked: Query the reported GI50 for LOX IMVI; item: C/C(CC(=O)Nc1cc(C)ccc1C)=N\NC(=O)c1ccncc1
Given back: > 100 µM (inactive)

Asked: Query the reported GI50 for LOX IMVI; item: Nc1nc2c(c(-c3ccccc3Cl)n1)COC/C2=C\c1ccccc1Cl
Given back: 18.7 µM (inactive)

Asked: Query the reported GI50 for LOX IMVI; item: CN(C)c1ccc(/C=N/Nc2nc3ccccc3c(=O)n2-c2ccccc2)cc1
Given back: > 100 µM (inactive)

Asked: Query the reported GI50 for LOX IMVI; item: N#Cc1c(-c2ccc(Cl)c(Cl)c2)c(-c2ccc(Cl)c(Cl)c2)nn(CC(=O)O)c1=O
Given back: 41.3 µM (inactive)

Asked: Query the reported GI50 for LOX IMVI; item: Cc1[nH]c2[nH]c(=S)nc(NC(N)=S)c2c1Cc1ccccc1
Given back: 19.6 µM (inactive)

Asked: Query the reported GI50 for LOX IMVI; item: COP(=O)(OC)C(NC=O)P(=O)(OC)OC
Given back: > 100 µM (inactive)

Asked: Query the reported GI50 for LOX IMVI; item: O=P(NC12CC3CC(CC(C3)C1)C2)(N1CC1)N1CC1
Given back: 11.1 µM (inactive)

Asked: Query the reported GI50 for LOX IMVI; item: O=C1OC(=O)C([Se]c2ccccc2)=C1[Se]c1ccccc1
Given back: > 100 µM (inactive)

Asked: Query the reported GI50 for LOX IMVI; item: O=C(/N=N/c1ccccc1Cl)NNc1ccccc1Cl
Given back: 23.4 µM (inactive)

* * *

# Test system: SK-OV-3
# experiment.notes: NCI tumour cell line growth inhibition, 48 h
Active and inactive are the calls of the source. Cut-off read from the data, not from the text of the source: active = GI50 up to about 1.1 µM and inactive = higher.
Give one outcome, nothing more. List: True = active, False = inactive

Asked: How did this test come out for O=C(/C=C/c1ccc(-c2ccccc2[N+](=O)[O-])o1)NCc1ccc(C(=O)NCCc2ccccc2)cc1 ?
Given back: False

Asked: How did this test come out for O=c1c2cc(I)ccc2nc(Sc2ccc([N+](=O)[O-])cc2[N+](=O)[O-])n1Cc1ccccc1 ?
Given back: False

Asked: How did this test come out for Cc1cc(O)c2c3c1C(=O)Oc1c(CO)c(O)c(C(=O)O)c(c1O3)C=NN=Cc1c3c(c(CO)c(O)c1C(=O)O)OC(=O)c1c(C)cc(O)c(c1O3)C=NN=C2 ?
Given back: False

Asked: How did this test come out for C/C(CC(=O)Nc1cc(C)ccc1C)=N\NC(=O)c1ccncc1 ?
Given back: False

Asked: How did this test come out for COCNC(=NC#N)NCOC ?
Given back: False

Asked: How did this test come out for Cn1c(-c2ccccc2)c2cc3nc4ccccc4nc3cc2c1-c1ccccc1 ?
Given back: False

Asked: How did this test come out for CCN(CCO)CC1CCCC2CCCCC21 (centres undefined) ?
Given back: False

Asked: How did this test come out for OCSc1nn(CO)c(=S)s1 ?
Given back: False

Asked: How did this test come out for CCC(CC)n1cc(C(=O)NC(=O)NCCCCCOC(=O)CCCCCCCCCCC(=O)OCCCCCNC(=O)NC(=O)c2cn(C(CC)CC)c(=O)[nH]c2=O)c(=O)[nH]c1=O ?
Given back: False

Asked: How did this test come out for O=C1c2cc3c(cc2NC(c2ccccc2F)C1O)OCO3 (centres undefined) ?
Given back: False

Asked: How did this test come out for O=C1CSC(c2ccccc2O)N1c1ccc(-c2ccc(-n3c(-c4ccccc4)nc4ccccc4c3=O)cc2)cc1 (centres undefined) ?
Given back: False

Asked: How did this test come out for C/C=C/C=C\C(=O)C1c2cccc(O)c2C(=O)c2c(O)cc(C)cc21 (centres undefined) ?
Given back: False

Asked: How did this test come out for CC(=O)OC1CCC2(C)C(=CCC3C2CCC2(C)C(C(C)C(=O)O)CCC32)C1 (centres undefined) ?
Given back: False

Asked: How did this test come out for CO[C@H](c1ccccc1)[C@H](C)N(C)c1ccc2ccccc2c1C1=NC(C)(C)CO1 ?
Given back: False

Asked: How did this test come out for O=C1CC(c2cccc(Cl)c2)Nc2ccc(N3CCCC3)cc21 (centres undefined) ?
Given back: True

Asked: How did this test come out for Cc1ccnc(NS(=O)(=O)c2ccc(NC(=O)c3ccc4nc5ccccc5c(Nc5ccc(S(=O)(=O)Nc6nccc(C)n6)cc5)c4c3)cc2)n1 ?
Given back: False

Asked: How did this test come out for O=C1NC(=O)C(=O)C(c2nc3ccccc3s2)C1=O ?
Given back: False

Asked: How did this test come out for CCCC(=O)OC[n+]1cccc(-c2c(COC(=O)NC(C)C)c(COC(=O)NC(C)C)c3n2CCC3)c1 ?
Given back: False

Asked: How did this test come out for O=C1/C(=C\c2c(-c3ccccc3)[nH]n(-c3ccccc3)c2=O)C(c2ccccc2)=NN1c1ccccc1 ?
Given back: False

* * *

# System: HL-60
# experiment.notes: NCI tumour cell line growth inhibition, 48 h
Calls of active or inactive are those of the source. No stated cut-off is given here; in the data, active = GI50 up to about 1.1 µM and inactive = higher.
Give one outcome, nothing more. List: 1 (yes) = active, 0 (no) = inactive

Asked: How did this test come out for CCCCCCCCCCCCCC[C@@H](O)[C@H]1CC[C@H]([C@H]2CC[C@H]([C@H](O)CCCCCC[C@@H](O)CC3=C[C@H](C)OC3=O)O2)O1 ?
Given back: 0 (no)

Asked: How did this test come out for N#Cc1c(N)oc(-c2cccc([N+](=O)[O-])c2)c1C#N ?
Given back: 0 (no)

Asked: How did this test come out for COC(=O)c1nc2n(n1)-c1ccccc1C(=O)N(Cc1ccccc1)C2 ?
Given back: 0 (no)

Asked: How did this test come out for O=C(O)CCC1c2[nH]c3ccccc3c2CCN1Cc1ccccc1 (centres undefined) ?
Given back: 0 (no)

Asked: How did this test come out for COC(=O)Cc1cc2c(cc1C(=O)c1ccc(N)cc1)OCO2 ?
Given back: 0 (no)

Asked: How did this test come out for C=C(C)[C@@H]1CCC2=C(CC[C@]3(C)[C@@H]([C@@H](CCC=C(C)C)C(=O)O)[C@H](O)C[C@@]23C)[C@@]1(C)CCC(=O)O ?
Given back: 1 (yes)

Asked: How did this test come out for COc1cc(/C=N/c2ccc(S(N)(=O)=O)cc2)cc(OC)c1 ?
Given back: 0 (no)

Asked: How did this test come out for COc1cc2c(cc1OC)C(C1CC1)ON(C)CC2 (centres undefined) ?
Given back: 0 (no)

Asked: How did this test come out for O=C1C(Br)=Cc2c(Cl)sc(Cl)c21 ?
Given back: 0 (no)

* * *

Record form. Attribute: GI50. Fill in for each entry.
# System: DMS-114
# experiment.notes: NCI tumour cell line growth inhibition, 48 h
Active and inactive are the calls of the source. No stated cut-off is given here; in the data, active = GI50 up to about 1.1 µM and inactive = higher.

Asked: Query the reported GI50 for DMS-114; item: O=c1/c(=C/c2cccc([N+](=O)[O-])c2)sc2nc3ccccc3n12
Given back: > 100 µM (inactive)

Asked: Query the reported GI50 for DMS-114; item: C[N+](C)(C)CC(=O)N/N=C(/Cc1nc2ccc([N+](=O)[O-])cc2nc1O)C(=O)Nc1cc(C(F)(F)F)ccc1Cl
Given back: 75 µM (inactive)

Asked: Query the reported GI50 for DMS-114; item: O/N=C1/C(=C/c2ccc(Cl)c(Cl)c2)CCCC1C(NO)c1ccc(Cl)c(Cl)c1 (centres undefined)
Given back: 17.9 µM (inactive)

Asked: Query the reported GI50 for DMS-114; item: COC(=O)CCC(NC(=S)N/N=C/c1cccs1)C(=O)OC (centres undefined)
Given back: > 100 µM (inactive)
